- METHOD_SUMMARY: Inhibition of binding of [125I]CCK-8 to Cholecystokinin type B receptor in guinea pig brain tissues
ASSAY_READOUT: IC50

Inquiry: Supply measured IC50 of O=C(NCC1CNc2ccccc2C(c2ccccc2F)=N1)C(O)c1ccccc1 (stereo unspecified) in your reply.
Reply text: > 100 µM
